# system: T1, His-tagged mouse CD38 (ACRO Biosystems CD8-M5223) (mouse, UniProt P56528 45-304)
# T1 construct: bought protein; used for ELISA coating and as SPR analyte; also called Murine; not shown: His tag
# T1 sequence (looked up): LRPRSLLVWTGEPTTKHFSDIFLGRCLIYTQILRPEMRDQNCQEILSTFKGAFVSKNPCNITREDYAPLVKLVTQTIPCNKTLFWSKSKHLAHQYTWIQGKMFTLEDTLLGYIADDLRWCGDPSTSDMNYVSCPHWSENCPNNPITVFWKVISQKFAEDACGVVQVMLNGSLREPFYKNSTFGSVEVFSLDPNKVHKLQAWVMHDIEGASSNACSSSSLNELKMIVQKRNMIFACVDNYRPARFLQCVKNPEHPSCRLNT
# protocol: SPR, IgG
value_kind: Kd
Answer format reminder: number followed by unit.

Worked cases, answers included:
binder	Kd
40769p2.1.G4 IgG (antibody, V domains shown, IgG) VH: EVQLLESGGGLVQPGGSLRLSCAASGFTFTSHDMNWVRQAPGKGLEWVSTITTGGNTYYADSVKGRFTISRDNSKNTLYLQMTSLRAEDTAVYYCTKHYSMDVWGQGTTVTVSS VL: QSVLTQPPSASGTPGQRVTISCSGSTSNVVFNAVYWYQQLPGTAPKLLFYGKSQRPSGVPDRFSGSKSGTSASLAISGLQSEDEADYYCAAWDDTLNGWVFGGGTKLTVL	106 nM
40596p2.1.A2 IgG (antibody, V domains shown, IgG) VH: EVQLLESGGGLVQPGGSLTLSCTASGLTFSSYAMNWVRQAPGKGLEWVATISSNSGSFRSYADSVKGRFTISRDNSKSTLYLQTNSLRAEDTALYYCTKDRSITANDFTMDVWGQGTTVTVSS VL: EIVLTQSPGTLSVSPGERATLNCRASQTVGSRLAWYQQKPGQAPRLLIYGASSRATGIPARFSGSGSGTEFTLTISSLQSEDFAVYYCQQYYDWPPLTFGGGTKVEIK	6.71 nM
40769p2.1.E1 IgG (antibody, V domains shown, IgG) VH: EVQLLESGGGLIQPGGSLRLSCTASGFDFSSYGMHWVRQAPGKGLEWVAIISDSGGTTYYGDSVKGRFTISRDNSKSTLYLQMNSLRAEDTALYYCASYIMDVWGQGTTVTVSS VL: QSVLTQPPSASGTPEQRVTISCSGSNSNVGDNAVYWYQQLPGTAPKLLFYGTNRRPSGVPDRFSGSKSGTSASLAISGLQSEDEADYYCAAWDDSLNAWVFGGGTKLTVL	1170 nM

Consider now this further binder.
Input line: Given the binder 40769p2.2.A5 IgG (antibody, V domains shown, IgG) VH: EVQLLESGGGLIQPGGSLRLSCTASGFDFSSYGMHWVRQAPGKGLEWVGIISDTGGTTYYGDSVKGRFTISRDNSKSTLYLQMNSLRAEDTALYYCASYIMDVWGQGTTVTVSS VL: QSVLTQPPSASGTPGQRVTISCSGSNSNVGDNAVYWYQQLPGTAPKLLFYGTNRRPSGVPDRFSGSKSGTSASLAISGLQSEDEADYYCAAWDDSLNAWVFGGGTKLTVL , write its reported Kd.
Output line: 1160 nM
